As shown below, each of these compounds has a reported IC50 value.
biological target: SIK2 (QIK) (SEQ ID NO: 11) (Homo sapiens); assay: SIK2 kinase assay (radiometric, 10 μM ATP); type: biochemical; conditions: read-out: SIK2 (QIK) (SEQ ID NO: 11) kinase inhibition result
Sequence (Q9H0K1 whole entry): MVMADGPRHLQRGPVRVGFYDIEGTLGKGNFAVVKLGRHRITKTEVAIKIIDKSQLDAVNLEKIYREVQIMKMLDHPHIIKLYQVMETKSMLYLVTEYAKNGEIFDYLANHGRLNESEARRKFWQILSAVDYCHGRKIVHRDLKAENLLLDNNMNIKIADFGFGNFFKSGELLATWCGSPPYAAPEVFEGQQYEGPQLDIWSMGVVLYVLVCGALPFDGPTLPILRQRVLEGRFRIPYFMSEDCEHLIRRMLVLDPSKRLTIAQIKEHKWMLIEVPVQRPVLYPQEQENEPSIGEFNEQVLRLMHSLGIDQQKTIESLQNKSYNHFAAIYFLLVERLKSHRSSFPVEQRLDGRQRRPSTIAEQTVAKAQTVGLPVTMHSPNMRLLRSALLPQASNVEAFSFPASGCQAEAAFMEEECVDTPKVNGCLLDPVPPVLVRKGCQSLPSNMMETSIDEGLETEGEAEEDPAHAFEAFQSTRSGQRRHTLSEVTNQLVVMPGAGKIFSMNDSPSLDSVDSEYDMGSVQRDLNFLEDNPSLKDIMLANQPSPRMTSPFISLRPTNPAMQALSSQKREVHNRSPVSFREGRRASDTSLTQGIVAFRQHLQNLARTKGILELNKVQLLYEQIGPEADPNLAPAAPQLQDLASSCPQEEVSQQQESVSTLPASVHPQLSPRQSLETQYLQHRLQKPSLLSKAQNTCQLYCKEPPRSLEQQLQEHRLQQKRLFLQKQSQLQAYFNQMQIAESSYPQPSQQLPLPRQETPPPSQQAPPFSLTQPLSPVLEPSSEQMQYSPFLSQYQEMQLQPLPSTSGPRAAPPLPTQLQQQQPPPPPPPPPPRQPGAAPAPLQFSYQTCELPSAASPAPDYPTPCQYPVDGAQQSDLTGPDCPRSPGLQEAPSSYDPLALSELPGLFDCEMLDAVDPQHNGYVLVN

smiles | recorded.metric | obs.value
COc1c(F)cc(F)cc1-c1c[nH]c2ncc(-c3cnn(C4CCN(CCO)CC4)c3)cc12 | IC50 | < 0.1 µM
N#Cc1ccc(-c2cnc3[nH]cc(-c4cccc(F)c4Cl)c3c2)s1 | IC50 | > 0.1 µM
Fc1cccc(-c2c[nH]c3ncc(-c4ccsc4)cc23)c1Cl | IC50 | < 0.1 µM
O=S(=O)(c1cccc(-c2c[nH]c3nccc(-c4ccsc4)c23)c1)N1CCCC1 | IC50 | > 1 µM
COc1c(F)cc(F)cc1-c1c[nH]c2ncc(-c3cnn(S(=O)(=O)N4CCN(C)CC4)c3)cc12 | IC50 | < 0.1 µM

# return IC50 of COc1ccc(-c2c[nH]c3nccc(-c4ccsc4)c23)c(OC)n1 (system: SIK2 (QIK) (SEQ ID NO: 11) (Homo sapiens))
> 0.1 µM

# return IC50 of COc1c(F)cc(F)cc1-c1c[nH]c2ncc(-c3cccc(S(=O)(=O)N(C)C)c3)cc12 (system: SIK2 (QIK) (SEQ ID NO: 11) (Homo sapiens))
< 0.1 µM

# return IC50 of CN(C)S(=O)(=O)c1ccccc1-c1c[nH]c2nccc(-c3ccsc3)c12 (system: SIK2 (QIK) (SEQ ID NO: 11) (Homo sapiens))
> 1 µM
